Target: T1, control peptide A2E-13/HLA-A*02:01 complex on T2 cells (member of the P19 mixture) (human)
T1 construct: Loaded on T2 cells as part of the mixture of 19 control peptides
Test: flow cytometry, phage on T2 cells
Measured Attribute: binding result

- Binder: "PSA146/HLA-A*02:01-specific scFv phage clone #17 (scFv, V domains shown) VH: QMQLVQSGAEVKKPGESLKISCKGSGYSFTSYWIGWVRQMPGKGLEWMGIIYPGDSDTRYSPSFQGQVTISADKSISTAYLQWSSLKASDTAMYYCARLVVPDAFDIWGQGTMVTVSS VL: QSVVTQPPSVSAAPGQKVTISCSGSSSNIGNNYVSWYQQLPGTAPKLLIYDNYKRPSGIPDRFSGSKSGTSATLGITGLQTGDEADYYCGTWDSSLSAGVFGGGTKLTVLG"
  Obs Value: "no binding"
- Binder: "PSA146/HLA-A*02:01-specific scFv phage clone #18 (scFv, V domains shown) VH: QVQLVQSGAEVKKPGESLKISCKGSGYSFTSYWIGWVRQMPGKGLEWMGIIYPGDSDTRYSPSFQGQVTISADKSISTAYLQWSSLKASDTAMYYCARWGSRGFLDAFDIWGQGTMVTVSS VL: QSVVTQPPSVSAAPGQRVTISCSGSSSNIGNNYVSWYQQLPGAAPRLLIYDNDKRPSGIPDRFSGSKSGTSATLGITGLQTGDEADYYCGTWDSSLSSGVFGGGTKLTVLG"
  Obs Value: "no binding"
- Binder: "PSA146/HLA-A*02:01-specific scFv phage clone #9 (scFv, V domains shown) VH: QVQLVQSGAEVKKPGASVKVSCKASGYTFTSYGISWVRQAPGQGLEWMGWISAYNGNTNYAQKLQGRVTMTTDTSTSTAYMELRSLRSDDTAVYYCARSSQYYVWDSWGQGTLVTVSS VL: QSVVTQPPSVSGAPGQRVTISCTGSSSNFGAGYDVHWYQQLPGTAPKLLIYGNSNRPSGVPDRFSGSKSGTSASLAITGLQAEDEADYYCQSYDSSLSGWVFGGGTKLTVLG"
  Obs Value: "no binding"
